# Tested on: Vero cells
# statedConditions: African green monkey
Please assign criterion not met whenever CC50 is at or above 3 µM, and criterion met whenever it is below.

Use the examples below as a reference point.
Does the reported CC50 of the following compound sit strictly below 3 µM? COc1cc(NC(C(=O)c2c[nH]c3ccc(OC(F)(F)F)cc23)c2ccc(F)cc2OCCO)cc(S(C)(=O)=O)c1 (single isomer, unassigned) [Compound 10B]
criterion met

Also COc1cc(NC(C(=O)c2c[nH]c3c(C)c(F)ccc23)c2ccc(F)cc2OCCO)cc(S(C)(=O)=O)c1 (single isomer, unassigned) [Compound 3A] , if possible.
criterion not met

COc1cc(NC(C(=O)c2c[nH]c3cc(F)c(F)cc23)c2ccc(F)cc2OCCO)cc(S(C)(=O)=O)c1 (single isomer, unassigned) [Compound 5A] , same question.
criterion not met

Continuing:
Please let me know if COc1cc(NC(C(=O)c2c[nH]c3cc(OC)c(OC(F)(F)F)cc23)c2ccc(F)cc2OCCO)cc(S(C)(=O)=O)c1 (single isomer, unassigned) [Compound 11A] shows CC50 below 3 µM.
criterion not met

What about this compound? COc1cc(NC(C(=O)c2c[nH]c3cc(OC)c(C)cc23)c2ccc(F)cc2OCCO)cc(S(C)(=O)=O)c1 (single isomer, unassigned) [Compound 6A]
criterion not met

---

Below is a list of entries, each paired with its recorded log10 EC50 value.
# Test system: DENV-4 strain H241
# assay: Tetravalent RT-qPCR assay Protocol A, serotype 4 H241
# Format: cell-based
# statedConditions: Dengue virus, DENV4, 72 h; RT-qPCR serotype 4 H241, Vero cells, day 3
Scale: decimal log of EC50, EC50 in nM.

Example entries and their recorded answers appear below.
Reported log10 EC50 for COc1cc(NC(C(=O)c2c[nH]c3c(C)c(F)ccc23)c2ccc(F)cc2OCCO)cc(S(C)(=O)=O)c1 (single isomer, unassigned) [Compound 3A] : what is it?
2.28

Similarly, COc1cc(NC(C(=O)c2c[nH]c3cc(OC)c(OC(F)(F)F)cc23)c2ccc(F)cc2OCCO)cc(S(C)(=O)=O)c1 (single isomer, unassigned) [Compound 11B] ?
1.53

Next: COc1cc(NC(C(=O)c2c[nH]c3c(C)cc(Cl)cc23)c2ccc(F)cc2OCCO)cc(S(C)(=O)=O)c1 (single isomer, unassigned) [Compound 9A]
2.04

Entry COc1cc(NC(C(=O)c2c[nH]c3c(C)c(Cl)ccc23)c2ccc(F)cc2OCCO)cc(S(C)(=O)=O)c1 (single isomer, unassigned) [Compound 4B] please
2.15

Check COc1cc(NC(C(=O)c2c[nH]c3ccc(OC(F)(F)F)cc23)c2ccc(F)cc2OCCO)cc(S(C)(=O)=O)c1 (single isomer, unassigned) [Compound 10B] too.
1.08

Next:
I have this compound here, COc1cc(NC(C(=O)c2c[nH]c3c(F)cc(C)cc23)c2ccc(F)cc2OCCO)cc(S(C)(=O)=O)c1 (single isomer, unassigned) [Compound 8A] , and I need its recorded log10 EC50.
2.34

Now this one: COc1cc(NC(C(=O)c2c[nH]c3cc(F)c(C)cc23)c2ccc(F)cc2OCCO)cc(S(C)(=O)=O)c1 (single isomer, unassigned) [Compound 7A]
2.08

Proceed to COc1cc(NC(C(=O)c2c[nH]c3cc(OC)c(C)cc23)c2ccc(F)cc2OCCO)cc(S(C)(=O)=O)c1 (single isomer, unassigned) [Compound 6A]
2.04

Same question for COc1cc(NC(C(=O)c2c[nH]c3cc(Cl)ccc23)c2ccc(F)cc2OCCO)cc(S(C)(=O)=O)c1 (single isomer, unassigned) [Compound 2A] please.
2.23

---

# Tested on: Vero cells
# statedConditions: African green monkey
Below: a set of entries, each annotated with reported CC50.
The reply should contain only the number, in µM.

Would you kindly share the measured CC50 for COc1cc(NC(C(=O)c2c[nH]c3cc(F)c(C)cc23)c2ccc(F)cc2OCCO)cc(S(C)(=O)=O)c1 (single isomer, unassigned) [Compound 7A] ?
3.1

New cases:
Could you share which CC50 value was measured for COc1cc(NC(C(=O)c2c[nH]c3c(C)c(Cl)ccc23)c2ccc(F)cc2OCCO)cc(S(C)(=O)=O)c1 (single isomer, unassigned) [Compound 4A] ?
11

Also COc1cc(NC(C(=O)c2c[nH]c3c(F)cc(C)cc23)c2ccc(F)cc2OCCO)cc(S(C)(=O)=O)c1 (single isomer, unassigned) [Compound 8A] , if possible.
3.4

Let us now turn to COc1cc(NC(C(=O)c2c[nH]c3cc(Cl)ccc23)c2ccc(F)cc2OCCO)cc(S(C)(=O)=O)c1 (single isomer, unassigned) [Compound 2A]
4.9

COc1cc(NC(C(=O)c2c[nH]c3c(C)cc(Cl)cc23)c2ccc(F)cc2OCCO)cc(S(C)(=O)=O)c1 (single isomer, unassigned) [Compound 9A] ?
3.2

Next entry: COc1cc(NC(C(=O)c2c[nH]c3ccc(OC(F)(F)F)cc23)c2ccc(F)cc2OCCO)cc(S(C)(=O)=O)c1 (single isomer, unassigned) [Compound 10A]
12

---

# System: DENV-4 strain H241
# assay: Tetravalent RT-qPCR assay Protocol A, serotype 4 H241
# Format: cell-based
# statedConditions: Dengue virus, DENV4, 72 h; RT-qPCR serotype 4 H241, Vero cells, day 3
# Experimental: The antiviral activity of the compounds of the invention was tested against DENV-1 strain TC974#666 (NCPV), DENV-2 strain 16681, DENV-3 strain H87 (NCPV) and DENV-4 strains H241 (NCPV) and EDEN (SG/06K2270DK1/2005; GenBank accession number QG398256) in a RT-qPCR assay. Therefore, Vero cells were infected with either DENV-1, or -2, or -3, or -4 in the presence or absence of test compounds. […] In addition, CC50 values are determined based on the Cp values acquired for the housekeeping gene β-actin. […]
propertyLabel: EC50 (nM)
API: value field is a number in nM; no unit string.

Here's what some known entries look like.
Which EC50 is listed for COc1cc(NC(C(=O)c2c[nH]c3cc(F)c(F)cc23)c2ccc(F)cc2OCCO)cc(S(C)(=O)=O)c1 (single isomer, unassigned) [Compound 5A] ?
180

Now the molecule COc1cc(NC(C(=O)c2c[nH]c3c(C)cc(OC(F)(F)F)cc23)c2ccc(F)cc2OCCO)cc(S(C)(=O)=O)c1 (single isomer, unassigned) [Compound 12A]
14

We next turn to a different molecule, shown below.
Item under review: COc1cc(NC(C(=O)c2c[nH]c3cc(F)ccc23)c2ccc(F)cc2OCCO)cc(S(C)(=O)=O)c1 (single isomer, unassigned) [Compound 1A] . Reported EC50?
290
